# System: Caco-2 cells (clone C2BBe1)
# test-details: CACO-2 permeability
# Format: in vitro ADME
# Parameters: unit not given here
# experimental-context: apical to basolateral; donor pH 6.5, receiver pH 7.4
# Procedure: Pre-plated Caco-2 cells (clone C2BBel) were obtained from Sigma-Aldrich, Inc. (Atlanta, GA). Cell monolayers were grown to confluence on collagen-coated, microporous, polycarbonate membranes in 24-well transwell plates for 21 days. […] After an initial equilibration with transport buffer, TEER values were read to test membrane integrity. […] Samples were analyzed by LC-MS/MS.
Could you please classify the records by DM Caco2 A to B using these ranges: bottom end: < 0.1; midrange: ≥ 0.1 and < 2; top end: ≥ 2

- compound: "CC(C)(OC(=O)OC[C@H]1O[C@@](C#N)(c2ccc3c(N)ncnn23)[C@H](O)[C@@H]1O)c1ccncc1"
  assigned-category: "midrange"
- compound: "N#C[C@@]1(c2ccc3c(N)ncnn23)O[C@H](COC(=O)OCCCCC(=O)O)[C@@H](O)[C@H]1O"
  assigned-category: "bottom end"
- compound: "N#C[C@@]1(c2ccc3c(N)ncnn23)O[C@H](COC(=O)OC2CCCC2)[C@@H](O)[C@H]1O"
  assigned-category: "midrange"
- compound: "CCOC(=O)OC[C@H]1O[C@@](C#N)(c2ccc3c(N)ncnn23)[C@@H]2OC(CC)O[C@@H]21 (stereo partly drawn)"
  assigned-category: "top end"

stdin: Entry CC(C)(C)COC(=O)OC[C@H]1O[C@@](C#N)(c2ccc3c(N)ncnn23)[C@H](O)[C@@H]1O belongs to which category?
stdout: midrange

stdin: Entry N#C[C@@]1(c2ccc3c(N)ncnn23)O[C@H](COC(=O)OCC2CCC2)[C@@H](O)[C@H]1O belongs to which category?
stdout: top end
